The values you see were collected from ChEMBL document CHEMBL4118183.

Each entry below carries its recorded Activity.
# protocol_description: Induction of inner mitochondrial membrane potential depolarization in human Friedreich's ataxia lymphocytes assessed as JC-1 monomers at 250 nM after 16 hrs by JC1-staining based flow cytometry (reference value: 17.3%)
# Format: functional, Friedreich's ataxia lymphocyte
parameter_measured: Activity

> print(dat)
                                   compound  parameter.measured  result
1  CCCCCCCCCCCCCc1cc2nc3ccc(N(C)C)cc3sc-2cc1=[N+](C)C.[I-]            Activity   17.6%
2  CCCCCCCCCCCCCCCCCc1cc2nc3ccc(N(C)C)cc3sc-2cc1=[N+](C)C.[I-]            Activity   15.2%
3  CCCCCc1cc2nc3ccc(N(C)C)cc3sc-2cc1=[N+](C)C.[I-]            Activity   16.9%
4  CCCCCCCCCCCCCCCCCc1cc2nc3ccc(N4CCOCC4)cc3sc-2cc1=[N+]1CCOCC1.[I-]            Activity     16%
5  CN(C)c1ccc2nc3ccc(N(C)C)cc3[s+]c2c1.[Cl-] [METHYLENE BLUE ANHYDROUS]            Activity   20.2%
6  CCCCCCCCCCCc1cc2nc3ccc(N(C)C)cc3sc-2cc1=[N+](C)C.[I-]            Activity   17.4%
7  CCCCCCCCCCCCCCCCc1cc2nc3ccc(N(C)C)cc3sc-2cc1=[N+](C)C.[I-]            Activity   18.2%
8  CCCCCCCCCCCCCCCc1cc2nc3ccc(N(C)C)cc3sc-2cc1=[N+](C)C.[I-]            Activity   14.2%

---

# protocol_description: Cytotoxicity against human Friedreich's ataxia lymphocytes assessed as cell viability by measuring dead cells at 2500 nM after 24 hrs by calceinAM ester/ethidium homodimer-1 staining based flow cytometry (reference value: 11.2%)
# run_parameters: friedreich's ataxia lymphocyte, 2.5 µM
parameter_measured: Activity (%)

> print(dat)
                                   molecule  reading.unit  recorded.number
1  CCCCCc1cc2nc3ccc(N(C)C)cc3sc-2cc1=[N+](C)C.[I-]             %             62.4
2  CCCCCCCCCCCCCCCCc1cc2nc3ccc(N(C)C)cc3sc-2cc1=[N+](C)C.[I-]             %               13
3  CCCCCCCCCCCc1cc2nc3ccc(N(C)C)cc3sc-2cc1=[N+](C)C.[I-]             %             54.7
4  CCCCCCCCCCCCCCCc1cc2nc3ccc(N(C)C)cc3sc-2cc1=[N+](C)C.[I-]             %             21.4
5  CCCCCCCCCCCCCCCCCc1cc2nc3ccc(N(C)C)cc3sc-2cc1=[N+](C)C.[I-]             %             10.5
6  CCCCCCCCCCCCCCCCCc1cc2nc3ccc(N4CCOCC4)cc3sc-2cc1=[N+]1CCOCC1.[I-]             %               12
7  CCCCCCCCCCCCCc1cc2nc3ccc(N(C)C)cc3sc-2cc1=[N+](C)C.[I-]             %             58.5
8  CN(C)c1ccc2nc3ccc(N(C)C)cc3[s+]c2c1.[Cl-] [METHYLENE BLUE ANHYDROUS]             %             39.6

---

// Activity lookup, one value per entry
# protocol_description: Cytotoxicity against human Friedreich's ataxia lymphocytes assessed as cell viability by measuring dead cells at 250 nM after 24 hrs by calceinAM ester/ethidium homodimer-1 staining based flow cytometry (reference value: 11.2%)
# run_parameters: friedreich's ataxia lymphocyte, 0.25 µM
parameter_measured: Activity

> print(dat)
                                   compound  result
1  CCCCCCCCCCCCCCCCCc1cc2nc3ccc(N(C)C)cc3sc-2cc1=[N+](C)C.[I-]    8.8%
2  CCCCCCCCCCCCCCCCc1cc2nc3ccc(N(C)C)cc3sc-2cc1=[N+](C)C.[I-]    8.4%
3  CCCCCCCCCCCCCc1cc2nc3ccc(N(C)C)cc3sc-2cc1=[N+](C)C.[I-]   10.3%
4  CCCCCCCCCCCc1cc2nc3ccc(N(C)C)cc3sc-2cc1=[N+](C)C.[I-]   10.2%
5  CCCCCCCCCCCCCCCCCc1cc2nc3ccc(N4CCOCC4)cc3sc-2cc1=[N+]1CCOCC1.[I-]    8.6%
6  CCCCCCCCCCCCCCCc1cc2nc3ccc(N(C)C)cc3sc-2cc1=[N+](C)C.[I-]   10.3%
7  CN(C)c1ccc2nc3ccc(N(C)C)cc3[s+]c2c1.[Cl-] [METHYLENE BLUE ANHYDROUS]   14.3%
8  CCCCCc1cc2nc3ccc(N(C)C)cc3sc-2cc1=[N+](C)C.[I-]   17.2%

---

Reported viability at 48 h, 0.25 µM is given for each of the following compounds.
# protocol_description: Cytotoxicity against human Friedreich's ataxia lymphocytes assessed as cell viability by measuring live cells at 250 nM after 48 hrs by calceinAM ester/ethidium homodimer-1 staining based flow cytometry (reference value: 89.3%)
# Design: species or system Friedreich's ataxia lymphocyte
# run_parameters: read-out: Activity
parameter_measured: viability at 48 h, 0.25 µM (%)

> print(dat)
                                 mol.smiles  reading.unit  recorded.number
1  CCCCCCCCCCCCCCCCc1cc2nc3ccc(N(C)C)cc3sc-2cc1=[N+](C)C.[I-]             %             89.4
2  CCCCCCCCCCCCCCCc1cc2nc3ccc(N(C)C)cc3sc-2cc1=[N+](C)C.[I-]             %             85.4
3  CCCCCCCCCCCCCc1cc2nc3ccc(N(C)C)cc3sc-2cc1=[N+](C)C.[I-]             %             86.7

---

# protocol_description: Cytotoxicity against human Friedreich's ataxia lymphocytes assessed as cell viability by measuring live cells at 2500 nM after 48 hrs by calceinAM ester/ethidium homodimer-1 staining based flow cytometry (reference value: 89.3%)
# Design: species or system Friedreich's ataxia lymphocyte
# run_parameters: read-out: Activity
Reported viability at 48 h, 2.5 µM values follow for various compounds
parameter_measured: viability at 48 h, 2.5 µM (%)

> print(dat)
                                   compound  recorded.number
1  CN(C)c1ccc2nc3ccc(=[N+](C)C)cc-3sc2c1 [METHYLENE BLUE ANHYDROUS]             15.4
2  CCCCCCCCCCCCCCCc1cc2nc3ccc(N(C)C)cc3sc-2cc1=[N+](C)C.[I-]             68.7
3  CCCCCCCCCCCc1cc2nc3ccc(N(C)C)cc3sc-2cc1=[N+](C)C.[I-]             16.2
4  CCCCCCCCCCCCCCCCc1cc2nc3ccc(N(C)C)cc3sc-2cc1=[N+](C)C.[I-]             81.2
5  CCCCCCCCCCCCCCCCCc1cc2nc3ccc(N(C)C)cc3sc-2cc1=[N+](C)C.[I-]             86.2
6  CCCCCCCCCCCCCCCCCc1cc2nc3ccc(N4CCOCC4)cc3sc-2cc1=[N+]1CCOCC1.[I-]               79
7  CCCCCc1cc2nc3ccc(N(C)C)cc3sc-2cc1=[N+](C)C.[I-]              4.4
8  CCCCCCCCCCCCCc1cc2nc3ccc(N(C)C)cc3sc-2cc1=[N+](C)C.[I-]             21.6

---

Readings of viability at 48 h, 0.25 µM for the listed compounds
# protocol_description: Cytotoxicity against human Friedreich's ataxia lymphocytes assessed as cell viability by measuring live cells at 250 nM after 48 hrs by calceinAM ester/ethidium homodimer-1 staining based flow cytometry (reference value: 89.3%)
# Set-up: species or system Friedreich's ataxia lymphocyte
# run_parameters: read-out: Activity
parameter_measured: viability at 48 h, 0.25 µM (%)

> print(dat)
                                   compound  reading.unit  recorded.number
1  CCCCCc1cc2nc3ccc(N(C)C)cc3sc-2cc1=[N+](C)C.[I-]             %             78.7
2  CCCCCCCCCCCCCCCCCc1cc2nc3ccc(N4CCOCC4)cc3sc-2cc1=[N+]1CCOCC1.[I-]             %             87.4
3  CN(C)c1ccc2nc3ccc(=[N+](C)C)cc-3sc2c1 [METHYLENE BLUE ANHYDROUS]             %             77.5
4  CCCCCCCCCCCc1cc2nc3ccc(N(C)C)cc3sc-2cc1=[N+](C)C.[I-]             %             85.7
5  CCCCCCCCCCCCCCCCCc1cc2nc3ccc(N(C)C)cc3sc-2cc1=[N+](C)C.[I-]             %             87.7
